Molecular target: ATX in human whole blood (Homo sapiens (Human))
Assay: Assay B: Whole-Blood ATX Assay
Type: biochemical
Conditions: human whole-blood, 1 h at 37° C., formation of 18:2 LPA; read-out: Human whole blood LPA IC50
pIC50: −log10 of the molar value.

| molecule | pIC50 |
| --- | --- |
| CC(=O)N1CCC2(CC1)CN(c1ccc(CNc3ccc(OCc4ccc(C(F)F)nc4)nn3)cc1)C2 [Example 1.6] | 8.06 |
| CC(=O)N1CCN(c2ccc(CNc3ccc(OCc4ccc(C(F)F)nc4)nn3)c(C(F)(F)F)c2)CC1 [Example 2.7] | 8.15 |
| FC(F)(F)c1ccc(COc2ccc(NCc3ccc(N4CCN(C5COC5)CC4)cc3)nn2)cn1 [Example 2.8] | 8.62 |
| CC(=O)N1CCN(c2ccc(CNc3ccc(OCc4ccc(C(F)F)nc4)nn3)cc2)CC1 [Example 3] | 8.72 |
